Where do the numbers come from? From PubChem BioAssay (Tox21).

biological target: Progesterone receptor (Homo sapiens) (UniProt P06401); experiment: qHTS assay to identify small molecule antagonists of the progesterone receptor (PR) signaling pathway (AID 1346795); details: PR-UAS-bla HEK293T, beta-lactamase FRET ratio, 16 h; series mostly up to 92.4 µM
Sequence (P06401 whole entry, looked up): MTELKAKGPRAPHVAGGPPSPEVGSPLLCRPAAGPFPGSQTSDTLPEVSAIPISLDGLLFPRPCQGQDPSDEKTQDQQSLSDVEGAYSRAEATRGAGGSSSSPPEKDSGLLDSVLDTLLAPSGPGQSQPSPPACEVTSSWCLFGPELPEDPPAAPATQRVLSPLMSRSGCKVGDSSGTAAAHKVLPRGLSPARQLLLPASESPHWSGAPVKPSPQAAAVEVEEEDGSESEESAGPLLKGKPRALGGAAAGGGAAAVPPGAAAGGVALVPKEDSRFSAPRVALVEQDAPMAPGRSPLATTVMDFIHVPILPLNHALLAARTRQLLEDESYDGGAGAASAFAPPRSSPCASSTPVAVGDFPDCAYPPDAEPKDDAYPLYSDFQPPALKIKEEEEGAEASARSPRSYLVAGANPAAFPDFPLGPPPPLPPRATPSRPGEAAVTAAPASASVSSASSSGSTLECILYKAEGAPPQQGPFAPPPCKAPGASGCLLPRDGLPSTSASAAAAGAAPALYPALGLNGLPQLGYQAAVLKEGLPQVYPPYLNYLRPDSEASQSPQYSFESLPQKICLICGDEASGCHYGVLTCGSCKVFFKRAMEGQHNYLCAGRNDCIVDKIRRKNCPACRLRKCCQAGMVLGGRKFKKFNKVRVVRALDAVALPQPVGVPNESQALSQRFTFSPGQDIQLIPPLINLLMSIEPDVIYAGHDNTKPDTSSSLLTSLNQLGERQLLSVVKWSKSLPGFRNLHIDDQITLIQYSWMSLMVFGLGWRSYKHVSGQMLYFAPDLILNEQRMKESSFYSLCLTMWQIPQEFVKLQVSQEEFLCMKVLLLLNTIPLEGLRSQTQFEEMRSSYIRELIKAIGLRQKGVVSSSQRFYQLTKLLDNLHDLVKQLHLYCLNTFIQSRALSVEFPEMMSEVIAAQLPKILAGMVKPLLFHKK
Records with an inconclusive call do not appear. The source made the active and inactive calls. The call rests on the fitted dose curve; in most records, active means well fitted inhibition curve with a large enough effect in the signal ratio in the repeat runs (not every such curve was filed as active); inconclusive means weak or mixed curves; inactive means flat fitted curve, though single readings scatter; the % refers to the signal ratio.
Labels: active, inactive

compound=CCCCCCCC=O experimental_target="Progesterone receptor (Homo sapiens) (UniProt P06401)" discrete_label=inactive
compound=c1ccc(Oc2ccccc2)cc1 experimental_target="Progesterone receptor (Homo sapiens) (UniProt P06401)" discrete_label=inactive
compound=CN/C(=C\[N+](=O)[O-])NCCSCc1csc(CN(C)C)n1 experimental_target="Progesterone receptor (Homo sapiens) (UniProt P06401)" discrete_label=inactive
compound=O=C1c2ccccc2CCc2ccccc21 experimental_target="Progesterone receptor (Homo sapiens) (UniProt P06401)" discrete_label=active
compound=C=C(C)[C@H]1CC=C(C)C(=O)C1 experimental_target="Progesterone receptor (Homo sapiens) (UniProt P06401)" discrete_label=inactive
compound=CC(=O)OCCOC(C)=O experimental_target="Progesterone receptor (Homo sapiens) (UniProt P06401)" discrete_label=inactive
compound=CC(=O)c1ccc(O)cc1 experimental_target="Progesterone receptor (Homo sapiens) (UniProt P06401)" discrete_label=inactive
compound=CCNC(=S)NCC experimental_target="Progesterone receptor (Homo sapiens) (UniProt P06401)" discrete_label=inactive
compound=NC(=S)NNC(N)=S experimental_target="Progesterone receptor (Homo sapiens) (UniProt P06401)" discrete_label=inactive
compound=CCCCCC(=O)O experimental_target="Progesterone receptor (Homo sapiens) (UniProt P06401)" discrete_label=inactive
compound=O=C(O)c1ccc(S(=O)(=O)N(Cl)Cl)cc1 experimental_target="Progesterone receptor (Homo sapiens) (UniProt P06401)" discrete_label=inactive
compound=NCCCCCCN experimental_target="Progesterone receptor (Homo sapiens) (UniProt P06401)" discrete_label=inactive
compound="C=CC(C)CCCC(C)(C)O (configuration not stated)" experimental_target="Progesterone receptor (Homo sapiens) (UniProt P06401)" discrete_label=inactive
compound="COc1ccccc1OCC(O)CO (configuration not stated)" experimental_target="Progesterone receptor (Homo sapiens) (UniProt P06401)" discrete_label=inactive
compound=CNC(=O)Oc1ccc2c(c1)[C@]1(C)CCN(C)[C@@H]1N2C experimental_target="Progesterone receptor (Homo sapiens) (UniProt P06401)" discrete_label=inactive
compound=C[Si]1(C)O[Si](C)(C)O[Si](C)(C)O[Si](C)(C)O1 experimental_target="Progesterone receptor (Homo sapiens) (UniProt P06401)" discrete_label=inactive
compound=COc1ccc(N)c(C)c1 experimental_target="Progesterone receptor (Homo sapiens) (UniProt P06401)" discrete_label=inactive
compound=O=C1CCCC1 experimental_target="Progesterone receptor (Homo sapiens) (UniProt P06401)" discrete_label=inactive
compound=CC(C)OP(=O)(CP(=O)(OC(C)C)OC(C)C)OC(C)C experimental_target="Progesterone receptor (Homo sapiens) (UniProt P06401)" discrete_label=inactive
compound=CCCCCCC=O experimental_target="Progesterone receptor (Homo sapiens) (UniProt P06401)" discrete_label=inactive
compound=CN1C(=O)CC[C@H]1c1cccnc1 experimental_target="Progesterone receptor (Homo sapiens) (UniProt P06401)" discrete_label=inactive
compound=C=C(C)CNCC experimental_target="Progesterone receptor (Homo sapiens) (UniProt P06401)" discrete_label=inactive
compound=CCCCCCCCCCCC(=O)OC experimental_target="Progesterone receptor (Homo sapiens) (UniProt P06401)" discrete_label=inactive
compound=C=CCCCCCCCCC(=O)O experimental_target="Progesterone receptor (Homo sapiens) (UniProt P06401)" discrete_label=inactive
compound=CCCCCCCCCCO experimental_target="Progesterone receptor (Homo sapiens) (UniProt P06401)" discrete_label=inactive
compound="CC1(C)CC(N)CC(C)(CN)C1 (configuration not stated)" experimental_target="Progesterone receptor (Homo sapiens) (UniProt P06401)" discrete_label=inactive
compound=CN(C)CCOC(=O)COc1ccc(Cl)cc1 experimental_target="Progesterone receptor (Homo sapiens) (UniProt P06401)" discrete_label=inactive
compound=CCCCCCCCCCN experimental_target="Progesterone receptor (Homo sapiens) (UniProt P06401)" discrete_label=inactive
compound=CCCCCCO experimental_target="Progesterone receptor (Homo sapiens) (UniProt P06401)" discrete_label=inactive
compound=O=S(=O)(O)c1ccc(N=Nc2c(O)ccc3cc(S(=O)(=O)O)ccc23)cc1 experimental_target="Progesterone receptor (Homo sapiens) (UniProt P06401)" discrete_label=inactive
compound=CCNc1ccccc1 experimental_target="Progesterone receptor (Homo sapiens) (UniProt P06401)" discrete_label=inactive
compound=CCc1ccccc1CC experimental_target="Progesterone receptor (Homo sapiens) (UniProt P06401)" discrete_label=inactive
compound=COc1cc(OC)c(C(=O)CCCN2CCCC2)c(OC)c1 experimental_target="Progesterone receptor (Homo sapiens) (UniProt P06401)" discrete_label=inactive
compound=COc1ccc(C)cc1N experimental_target="Progesterone receptor (Homo sapiens) (UniProt P06401)" discrete_label=inactive
compound="CC(CCO)CC(C)(C)C (configuration not stated)" experimental_target="Progesterone receptor (Homo sapiens) (UniProt P06401)" discrete_label=inactive
compound=CCNc1cccc(C)c1 experimental_target="Progesterone receptor (Homo sapiens) (UniProt P06401)" discrete_label=inactive
compound=COc1ccc(OC)cc1 experimental_target="Progesterone receptor (Homo sapiens) (UniProt P06401)" discrete_label=inactive
compound=Cc1ccc([N+](=O)[O-])cc1S(=O)(=O)O experimental_target="Progesterone receptor (Homo sapiens) (UniProt P06401)" discrete_label=inactive
compound=CC1(C)S[C@@H]2[C@H](NC(=O)COc3ccccc3)C(=O)N2[C@H]1C(=O)O experimental_target="Progesterone receptor (Homo sapiens) (UniProt P06401)" discrete_label=inactive
compound=CC(=O)OCc1ccccc1 experimental_target="Progesterone receptor (Homo sapiens) (UniProt P06401)" discrete_label=inactive
compound=CC(C)OC(=O)COc1ccc(Cl)cc1Cl experimental_target="Progesterone receptor (Homo sapiens) (UniProt P06401)" discrete_label=inactive
compound=O=C(O)/C=C/C(=O)O experimental_target="Progesterone receptor (Homo sapiens) (UniProt P06401)" discrete_label=inactive
compound=O=C(O)c1ccc(C(=O)O)c(C(=O)O)c1 experimental_target="Progesterone receptor (Homo sapiens) (UniProt P06401)" discrete_label=inactive
compound="CCCCC(C=O)CC (configuration not stated)" experimental_target="Progesterone receptor (Homo sapiens) (UniProt P06401)" discrete_label=inactive
compound=CCOC(=O)n1ccn(C)c1=S experimental_target="Progesterone receptor (Homo sapiens) (UniProt P06401)" discrete_label=inactive
compound=CC(C)=CCl experimental_target="Progesterone receptor (Homo sapiens) (UniProt P06401)" discrete_label=inactive
compound=COc1ccc([N+](=O)[O-])cc1N experimental_target="Progesterone receptor (Homo sapiens) (UniProt P06401)" discrete_label=inactive
